Measured values drawn from ChEMBL document CHEMBL4725278 for this set.

target.of.assay: Carbonic anhydrase 1 (Homo sapiens, UniProt P00915)
Sequence (P00915 whole entry): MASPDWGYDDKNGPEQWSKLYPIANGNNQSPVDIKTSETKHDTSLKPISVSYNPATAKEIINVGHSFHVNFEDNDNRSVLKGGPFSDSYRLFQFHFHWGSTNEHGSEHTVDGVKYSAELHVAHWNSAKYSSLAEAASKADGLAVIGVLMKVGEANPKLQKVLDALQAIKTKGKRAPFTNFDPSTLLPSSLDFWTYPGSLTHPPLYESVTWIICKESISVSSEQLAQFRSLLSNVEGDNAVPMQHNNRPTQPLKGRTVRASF
test.method.notes: Inhibition of recombinant human carbonic anhydrase 1 assessed as inhibition constant preincubated with enzyme for 10 mins by phenol red dye based stopped flow CO2 hydration assay
Entries and their measured Ki follow.

Solved entries:
>  <molecular.string>
O=C(/C=C/c1ccc(Cl)cc1)Nc1ccc2oc(=O)ccc2c1

>  <Ki>
> 10 µM

$$$$
>  <molecular.string>
Cc1cc(=O)oc2cc(NC(=O)/C=C/c3ccc(F)cc3)ccc12

>  <Ki>
> 10 µM

$$$$
>  <molecular.string>
COc1ccc(/C=C/C(=O)Nc2ccc3oc(=O)ccc3c2)cc1

>  <Ki>
> 10 µM

$$$$
>  <molecular.string>
O=C(/C=C/c1cccc(F)c1)Nc1ccc2oc(=O)ccc2c1

>  <Ki>
> 10 µM

$$$$
>  <molecular.string>
O=C(/C=C/c1ccccc1OC(F)F)Nc1ccc2c(c1)C=CS(=O)(=O)O2

>  <Ki>
> 10 µM

$$$$

Turning to the following molecule.
In: Given the entry Cc1cc(=O)oc2cc(NC(=O)/C=C/c3cccc(F)c3)ccc12 , report its measured Ki.
Out: > 10 µM

---

target.of.assay: Carbonic anhydrase 9 (Homo sapiens, UniProt Q16790)
test.method.notes: Inhibition of recombinant human carbonic anhydrase 9 assessed as inhibition constant preincubated with enzyme for 10 mins by phenol red dye based stopped flow CO2 hydration assay
assay.endpoint: Ki (nM)

Solved entries:
>  <molecular.string>
O=C(/C=C/c1ccc(C(F)(F)F)cc1)Nc1ccc2oc(=O)ccc2c1

>  <measurement.unit>
nM

>  <Ki>
91.1

$$$$
>  <molecular.string>
O=C(/C=C/c1ccccc1OC(F)F)Nc1ccc2c(c1)C=CS(=O)(=O)O2

>  <measurement.unit>
nM

>  <Ki>
92.8

$$$$

[I] COc1ccc(/C=C/C(=O)Nc2ccc3oc(=O)ccc3c2)cc1
[II] O=C(/C=C/c1cccc(C(F)(F)F)c1)Nc1ccc2c(c1)C=CS(=O)(=O)O2
In: Which is greater in Ki, the first item I or the second item II ? Lab note: record the label of whichever item you select.
Out: I

---

target.of.assay: UniProt Q16790
test.method.notes: Inhibition of recombinant human carbonic anhydrase 9 assessed as inhibition constant preincubated with enzyme for 10 mins by phenol red dye based stopped flow CO2 hydration assay
assay.endpoint: Ki (nM)

Solved entries:
>  <molecular.string>
O=C(/C=C/c1cccc([N+](=O)[O-])c1)Nc1ccc2oc(=O)ccc2c1

>  <Ki [nM]>
7210

$$$$
>  <molecular.string>
O=C(/C=C/c1ccc(F)cc1)Nc1ccc2c(c1)C=CS(=O)(=O)O2

>  <Ki [nM]>
517

$$$$
>  <molecular.string>
COc1cc(/C=C/C(=O)Nc2ccc3c(C)cc(=O)oc3c2)cc(OC)c1OC

>  <Ki [nM]>
647

$$$$

[a] Cc1cc(=O)oc2cc(NC(=O)/C=C/c3ccccc3)ccc12
[b] Cc1cc(=O)oc2cc(NC(=O)/C=C/c3ccc(F)c(F)c3)ccc12
In: # min-compare on Ki between a and b Lab note: record the label of whichever item you select.
Out: a

[P] Cc1cc(=O)oc2cc(NC(=O)/C=C/c3ccc(C#N)cc3)ccc12
[Q] COc1ccc(/C=C/C(=O)Nc2ccc3oc(=O)ccc3c2)cc1OC
[R] NS(=O)(=O)c1ccc(NC(=O)/C=C/c2ccccc2OC(F)F)cc1
[S] COc1ccc(/C=C/C(=O)Nc2ccc3oc(=O)ccc3c2)c(F)c1
In: Could you please sort these 4 entries by Ki from high to low? Give the labels in the order requested.
Out: P, S, Q, R
(P: 854 nM, S: 472 nM, Q: 321 nM, R: 6 nM)

[P] O=C(/C=C/c1ccccc1OC(F)F)Nc1ccc2oc(=O)ccc2c1
[Q] COc1ccc(/C=C/C(=O)Nc2ccc3c(C)cc(=O)oc3c2)c(F)c1
In: # min-compare on Ki between P and Q Lab note: record the label of whichever item you select.
Out: P
(P: 384 nM, Q: 817 nM)

[1] O=C(/C=C/c1cccc(C(F)(F)F)c1)Nc1ccc2oc(=O)ccc2c1
[2] O=C(/C=C/c1ccc(F)c(F)c1)Nc1ccc2c(c1)C=CS(=O)(=O)O2
[3] COc1ccc(/C=C/C(=O)Nc2ccc3c(C)cc(=O)oc3c2)cc1OC
In: Could you please sort these 3 entries by Ki from high to low? Give the labels in the order requested.
Out: 3, 2, 1
(3: 3040 nM, 2: 720 nM, 1: 88 nM)

---

target.of.assay: Carbonic anhydrase 12 (Homo sapiens, UniProt O43570)
Sequence (O43570 whole entry): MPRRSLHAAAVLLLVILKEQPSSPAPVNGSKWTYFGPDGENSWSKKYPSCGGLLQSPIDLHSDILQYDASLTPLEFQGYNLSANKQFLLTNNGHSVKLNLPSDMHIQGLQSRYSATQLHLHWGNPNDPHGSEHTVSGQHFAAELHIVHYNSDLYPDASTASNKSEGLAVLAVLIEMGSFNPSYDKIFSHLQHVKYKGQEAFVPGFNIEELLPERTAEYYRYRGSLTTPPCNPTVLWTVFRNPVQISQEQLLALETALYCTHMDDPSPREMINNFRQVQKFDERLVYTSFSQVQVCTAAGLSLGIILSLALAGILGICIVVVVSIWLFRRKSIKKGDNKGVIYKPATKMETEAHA
test.method.notes: Inhibition of recombinant human carbonic anhydrase 12 assessed as inhibition constant preincubated with enzyme for 10 mins by phenol red dye based stopped flow CO2 hydration assay
pKi: −log10 of the molar value.
assay.endpoint: pKi

Solved entries:
>  <molecular.string>
COc1ccc(/C=C/C(=O)Nc2ccc3oc(=O)ccc3c2)cc1

>  <pKi>
6.37

$$$$
>  <molecular.string>
O=C(/C=C/c1ccc(F)c(F)c1)Nc1ccc2oc(=O)ccc2c1

>  <pKi>
6.69

$$$$
>  <molecular.string>
COc1cc(/C=C/C(=O)Nc2ccc3oc(=O)ccc3c2)cc(OC)c1OC

>  <pKi>
6.83

$$$$
>  <molecular.string>
COc1ccc(/C=C/C(=O)Nc2ccc3c(c2)C=CS(=O)(=O)O3)c(F)c1

>  <pKi>
6.40

$$$$
>  <molecular.string>
O=C(/C=C/c1cccc(F)c1)Nc1ccc2oc(=O)ccc2c1

>  <pKi>
6.39

$$$$

[A] COc1cc(/C=C/C(=O)Nc2ccc3c(c2)C=CS(=O)(=O)O3)cc(OC)c1OC
[B] O=C(/C=C/c1cc(Cl)cc(Cl)c1)Nc1ccc2oc(=O)ccc2c1
[C] O=C(/C=C/c1ccc(Cl)cc1)Nc1ccc2oc(=O)ccc2c1
In: Could you please sort these 3 entries by pKi from high to low? Give the labels in the order requested.
Out: A, C, B
(A: 6.68, C: 6.46, B: 6.15)

---

target.of.assay: Carbonic anhydrase 9 (Homo sapiens)
test.method.notes: Inhibition of recombinant human carbonic anhydrase 9 assessed as inhibition constant preincubated with enzyme for 10 mins by phenol red dye based stopped flow CO2 hydration assay
pKi: −log10 of the molar value.
assay.endpoint: pKi

Solved entries:
>  <molecular.string>
O=C(/C=C/c1ccccc1)Nc1ccc2oc(=O)ccc2c1

>  <target.of.assay>
Carbonic anhydrase 9 (Homo sapiens)

>  <data.value>
6.88

$$$$
>  <molecular.string>
O=C(/C=C/c1cc(Cl)cc(Cl)c1)Nc1ccc2oc(=O)ccc2c1

>  <target.of.assay>
Carbonic anhydrase 9 (Homo sapiens)

>  <data.value>
6.52

$$$$
>  <molecular.string>
Cc1cc(=O)oc2cc(NC(=O)/C=C/c3cccc(F)c3)ccc12

>  <target.of.assay>
Carbonic anhydrase 9 (Homo sapiens)

>  <data.value>
6.19

$$$$
>  <molecular.string>
Cc1cc(=O)oc2cc(NC(=O)NS(=O)(=O)c3ccc(F)cc3)ccc12

>  <target.of.assay>
Carbonic anhydrase 9 (Homo sapiens)

>  <data.value>
7.69

$$$$
>  <molecular.string>
O=C(/C=C/c1cccc(F)c1)Nc1ccc2oc(=O)ccc2c1

>  <target.of.assay>
Carbonic anhydrase 9 (Homo sapiens)

>  <data.value>
7.37

$$$$
>  <molecular.string>
O=C(/C=C/c1ccc(Cl)cc1)Nc1ccc2oc(=O)ccc2c1

>  <target.of.assay>
Carbonic anhydrase 9 (Homo sapiens)

>  <data.value>
7.05

$$$$

[I] COc1ccc(/C=C/C(=O)Nc2ccc3oc(=O)ccc3c2)c(OC)c1
[II] O=C(/C=C/c1ccc(F)c(F)c1)Nc1ccc2oc(=O)ccc2c1
[III] O=C(/C=C/c1ccc(F)cc1)Nc1ccc2oc(=O)ccc2c1
[IV] COc1cc(/C=C/C(=O)Nc2ccc3oc(=O)ccc3c2)cc(OC)c1OC
[V] N#Cc1ccc(/C=C/C(=O)Nc2ccc3oc(=O)ccc3c2)cc1
In: Could you please sort these 5 entries by pKi from high to low? Give the labels in the order requested.
Out: III, I, IV, II, V

---

target.of.assay: Carbonic anhydrase 12 (Homo sapiens)
test.method.notes: Inhibition of recombinant human carbonic anhydrase 12 assessed as inhibition constant preincubated with enzyme for 10 mins by phenol red dye based stopped flow CO2 hydration assay
assay.endpoint: Ki (µM)

Solved entries:
>  <molecular.string>
O=C(/C=C/c1cccc([N+](=O)[O-])c1)Nc1ccc2oc(=O)ccc2c1

>  <Ki [µM]>
0.557

$$$$
>  <molecular.string>
O=C(/C=C/c1cccc(C(F)(F)F)c1)Nc1ccc2c(c1)C=CS(=O)(=O)O2

>  <Ki [µM]>
0.48

$$$$
>  <molecular.string>
O=C(/C=C/c1ccc(F)c(F)c1)Nc1ccc2c(c1)C=CS(=O)(=O)O2

>  <Ki [µM]>
0.568

$$$$

[I] COc1cc(/C=C/C(=O)Nc2ccc3c(C)cc(=O)oc3c2)cc(OC)c1OC
[II] O=C(/C=C/c1ccc(C(F)(F)F)cc1)Nc1ccc2oc(=O)ccc2c1
[III] O=C(/C=C/c1ccccc1OC(F)F)Nc1ccc2oc(=O)ccc2c1
In: Could you please sort these 3 entries by Ki from high to low? Give the labels in the order requested.
Out: I, III, II

[A] COc1ccc(/C=C/C(=O)Nc2ccc3c(C)cc(=O)oc3c2)cc1OC
[B] COc1ccc(/C=C/C(=O)Nc2ccc3oc(=O)ccc3c2)cc1OC
In: # min-compare on Ki between A and B Lab note: record the label of whichever item you select.
Out: B
